Tested on: L1210 leukemia ip in BDF1 mice, survival T/C
Assay: NCI In Vivo Anticancer Drug Screen. Data for tumor model L1210 Leukemia (intraperitoneal) in B6D2F1 (BDF1) mice
Conditions: endpoint: mean survival time; dose: 200.0 mg/kg/injection; schedule: Q01DX001 (ip); vehicle: saline; higher = longer survival
Toxic doses and inconclusive results are not listed.
Reported values of T/C for individual entries

Recorded T/C, per entry:
[
  {
    "compound": "Nc1nc(Cl)nc2c1ncn2C1OC(CO)C(O)C1O (configuration not stated)",
    "subjectOfTest": "L1210 leukemia ip in BDF1 mice, survival T/C",
    "testValue": "103 % of control"
  },
  {
    "compound": "C[n+]1ccccc1C(=O)O",
    "subjectOfTest": "L1210 leukemia ip in BDF1 mice, survival T/C",
    "testValue": "106 % of control"
  },
  {
    "compound": "CC1=NN(c2ccccc2)C(=O)C1N=Nc1ccc([As](=O)(O)O)c(O)c1 (configuration not stated)",
    "subjectOfTest": "L1210 leukemia ip in BDF1 mice, survival T/C",
    "testValue": "102 % of control"
  },
  {
    "compound": "CCCCCCC1c2ccccc2CC1CCCC (configuration not stated)",
    "subjectOfTest": "L1210 leukemia ip in BDF1 mice, survival T/C",
    "testValue": "102 % of control"
  },
  {
    "compound": "COc1ccc([N+](=O)[O-])cc1[I+]c1cc([N+](=O)[O-])ccc1OC",
    "subjectOfTest": "L1210 leukemia ip in BDF1 mice, survival T/C",
    "testValue": "96 % of control"
  }
]

Dear colleague, I am looking for the recorded T/C of the following compound: CC1CCC(C(C)C)C(OC(=O)Nc2ccc(S(=O)(=O)N(C)C)cc2)C1 (configuration not stated)
89 % of control

Check OC1CC2C=CC1C2 (configuration not stated) too.
88 % of control

Check `Cc1cccc2c1sc1c(C)cc(C(=O)CCC(=O)O)cc12` too.
89 % of control

Check `Cc1cccc(Cl)c1NC(=O)CCC(=O)O` too.
101 % of control

Check `CCOC(=O)c1ccc(NC(=O)Nc2c(C)n(C)n(-c3ccccc3)c2=O)cc1` too.
90 % of control

Check `c1cc2[nH]c1C1(CCCC1)c1ccc([nH]1)C1(CCCC1)c1ccc([nH]1)C1(CCCC1)c1ccc([nH]1)C21CCCC1` too.
103 % of control

Check `CCOC(=O)/C(C#N)=C1\CCc2cc(OC)ccc21` too.
90 % of control
